Value source: PubChem BioAssay (NCI)

Each record here notes measured log10 of TGI.
Test system: IGROV1 ovarian
protocol: NCI tumour cell line growth inhibition, 48 h
Please keep in mind that the values are log10 of TGI expressed in µM.

Some compounds with known log10 of TGI results, for comparison:
O=C1/C(=C\c2ccc([N+](=O)[O-])cc2)N(S(=O)(=O)c2ccccc2)c2ncccc21 : 1.57
C=CC[C@]1(/C=N/O)CN(S(=O)(=O)CC[Si](C)(C)C)C[C@H]2CC=CC[C@H]21 : 1.54
COc1cc(Nc2ncccc2C(=O)Nc2nc3ccc(F)cc3s2)cc(OC)c1OC : 0.84
O=C1C=CC(=O)C2C1C1(Cl)C(Cl)=C(Cl)C2(Cl)C1(Cl)Cl (stereo not given) : 1.28
O=C(NN1C(=O)C(Cl)C1c1ccc(Cl)cc1)c1c(Cl)c(Cl)c(Cl)c(Cl)c1-c1nc2ccccc2[nH]1 (stereo not given) : 1.66
CCN1C(=O)c2ccc3c4c(ccc(c24)C1=O)C(=O)N(CCCNCc1ccccc1OC)C3=O : 0.64
COC(=O)c1ccc2[nH]c(O)c(C(=Nc3ccc(N(C)C(=O)CN4CCN(C)CC4)cc3)c3ccc4c(c3)OCO4)c2c1 : 0.18

Next compound, please.
Q: Assign log10 of TGI to the following record: `Cc1cn(-c2cc(NC(=O)c3cccc(C#Cc4cccc5[nH]nc(N)c45)c3)cc(C(F)(F)F)c2)cn1`
Result: 1.92
